For each entry below, report its CD28 scFv signal in presence of CD28 value.
tested-system: T1, Anti-CD28 scFv (VH - linker 1 - VL) (biotinylated (site not stated))
T1 construct: Captured as biotinylated scFv on neutravidin plates in the panning ELISA
T1 sequence (scFv, as listed by the source): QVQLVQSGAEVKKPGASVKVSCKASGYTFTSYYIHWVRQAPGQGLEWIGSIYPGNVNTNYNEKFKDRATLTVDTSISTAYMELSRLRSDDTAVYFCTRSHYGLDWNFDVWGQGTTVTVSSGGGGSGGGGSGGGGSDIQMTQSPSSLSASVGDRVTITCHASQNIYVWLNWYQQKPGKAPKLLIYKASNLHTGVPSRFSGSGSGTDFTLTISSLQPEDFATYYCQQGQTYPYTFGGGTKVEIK
assay-remarks: phage ELISA as above, wells pre-incubated with soluble CD28 (competitor);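 further: ELISA of crude clonal phage supernatants added to wells pre-treated with soluble CD28 in blocking buffer, bound phage read out with HRP-conjugated anti-M13 antibody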
Please give only the number in your answer, with no unit.

input: Output measured CD28 scFv signal in presence of CD28 for this item: LHWCPTSMWTYCYY [Phage-392]
output: 2.46

input: Please indicate CD28 scFv signal in presence of CD28 recorded for MDWCPRDMWFECFN [Phage-393]
output: 0.778

input: State its CD28 scFv signal in presence of CD28 for this binder: LHWCPITMWTYCYY [Phage-409]
output: 0.516

input: Please look at this binder and report its CD28 scFv signal in presence of CD28: MSWCPRFMWHECFN [Phage-411]
output: 0.246

input: Return CD28 scFv signal in presence of CD28 (reported value) for this binder: MDWCPKDMWAECFN [Phage-395]
output: 0.457

input: Recall and state the measured CD28 scFv signal in presence of CD28 for MSWCPWDMWNECFA [Phage-403] .
output: 0.108

input: Specify reported CD28 scFv signal in presence of CD28 for the binder shown: MDWCPRAMWDYCFY [Phage-397]
output: 0.339

input: Supply recorded CD28 scFv signal in presence of CD28 for MDWCPRNMWNECFF [Phage-398] here.
output: 0.43

input: // fetch CD28 scFv signal in presence of CD28 given entry IDWCPRYMWHECFF [Phage-410]
output: 0.164

input: For the binder MNWCPIHMWNQCFA [Phage-407] , give its measured CD28 scFv signal in presence of CD28 value.
output: 0.133

input: Give the measured CD28 scFv signal in presence of CD28 for MDWCPRSMWDSCFN [Phage-399]
output: 0.142

input: Report CD28 scFv signal in presence of CD28 for MDWCPMYMWHKCFH [Phage-415]
output: 0.168

input: Fill in reported CD28 scFv signal in presence of CD28 for this entry: MFWCPKDMWAECFA [Phage-408]
output: 0.113

input: Let me know recorded CD28 scFv signal in presence of CD28 for QHWCPRDMWNDCYA [Phage-412] , thanks.
output: 0.149

input: Look up CD28 scFv signal in presence of CD28 of MDWCPSDMWSNCFN [Phage-413] and report it.
output: 0.121

input: Give a short answer stating reported CD28 scFv signal in presence of CD28 for MDWCPFDMWADCFF [Phage-391] .
output: 0.215

input: Provide one value: measured CD28 scFv signal in presence of CD28 of TDWCPRDMWYLCFN [Phage-396]
output: 0.301

input: Provide one value: measured CD28 scFv signal in presence of CD28 of MNWCPIDMWTECFN [Phage-406]
output: 0.175

Values from patent US20260242478A1
